Where these numbers come from: patent US12246008B2

Target: human Nav1.7 channels stably expressed in HEK 293 cells (Homo sapiens, UniProt Q15858)
Construct: expressed in transfected cells; host or cells: HEK 293
Sequence (Q15858 whole entry): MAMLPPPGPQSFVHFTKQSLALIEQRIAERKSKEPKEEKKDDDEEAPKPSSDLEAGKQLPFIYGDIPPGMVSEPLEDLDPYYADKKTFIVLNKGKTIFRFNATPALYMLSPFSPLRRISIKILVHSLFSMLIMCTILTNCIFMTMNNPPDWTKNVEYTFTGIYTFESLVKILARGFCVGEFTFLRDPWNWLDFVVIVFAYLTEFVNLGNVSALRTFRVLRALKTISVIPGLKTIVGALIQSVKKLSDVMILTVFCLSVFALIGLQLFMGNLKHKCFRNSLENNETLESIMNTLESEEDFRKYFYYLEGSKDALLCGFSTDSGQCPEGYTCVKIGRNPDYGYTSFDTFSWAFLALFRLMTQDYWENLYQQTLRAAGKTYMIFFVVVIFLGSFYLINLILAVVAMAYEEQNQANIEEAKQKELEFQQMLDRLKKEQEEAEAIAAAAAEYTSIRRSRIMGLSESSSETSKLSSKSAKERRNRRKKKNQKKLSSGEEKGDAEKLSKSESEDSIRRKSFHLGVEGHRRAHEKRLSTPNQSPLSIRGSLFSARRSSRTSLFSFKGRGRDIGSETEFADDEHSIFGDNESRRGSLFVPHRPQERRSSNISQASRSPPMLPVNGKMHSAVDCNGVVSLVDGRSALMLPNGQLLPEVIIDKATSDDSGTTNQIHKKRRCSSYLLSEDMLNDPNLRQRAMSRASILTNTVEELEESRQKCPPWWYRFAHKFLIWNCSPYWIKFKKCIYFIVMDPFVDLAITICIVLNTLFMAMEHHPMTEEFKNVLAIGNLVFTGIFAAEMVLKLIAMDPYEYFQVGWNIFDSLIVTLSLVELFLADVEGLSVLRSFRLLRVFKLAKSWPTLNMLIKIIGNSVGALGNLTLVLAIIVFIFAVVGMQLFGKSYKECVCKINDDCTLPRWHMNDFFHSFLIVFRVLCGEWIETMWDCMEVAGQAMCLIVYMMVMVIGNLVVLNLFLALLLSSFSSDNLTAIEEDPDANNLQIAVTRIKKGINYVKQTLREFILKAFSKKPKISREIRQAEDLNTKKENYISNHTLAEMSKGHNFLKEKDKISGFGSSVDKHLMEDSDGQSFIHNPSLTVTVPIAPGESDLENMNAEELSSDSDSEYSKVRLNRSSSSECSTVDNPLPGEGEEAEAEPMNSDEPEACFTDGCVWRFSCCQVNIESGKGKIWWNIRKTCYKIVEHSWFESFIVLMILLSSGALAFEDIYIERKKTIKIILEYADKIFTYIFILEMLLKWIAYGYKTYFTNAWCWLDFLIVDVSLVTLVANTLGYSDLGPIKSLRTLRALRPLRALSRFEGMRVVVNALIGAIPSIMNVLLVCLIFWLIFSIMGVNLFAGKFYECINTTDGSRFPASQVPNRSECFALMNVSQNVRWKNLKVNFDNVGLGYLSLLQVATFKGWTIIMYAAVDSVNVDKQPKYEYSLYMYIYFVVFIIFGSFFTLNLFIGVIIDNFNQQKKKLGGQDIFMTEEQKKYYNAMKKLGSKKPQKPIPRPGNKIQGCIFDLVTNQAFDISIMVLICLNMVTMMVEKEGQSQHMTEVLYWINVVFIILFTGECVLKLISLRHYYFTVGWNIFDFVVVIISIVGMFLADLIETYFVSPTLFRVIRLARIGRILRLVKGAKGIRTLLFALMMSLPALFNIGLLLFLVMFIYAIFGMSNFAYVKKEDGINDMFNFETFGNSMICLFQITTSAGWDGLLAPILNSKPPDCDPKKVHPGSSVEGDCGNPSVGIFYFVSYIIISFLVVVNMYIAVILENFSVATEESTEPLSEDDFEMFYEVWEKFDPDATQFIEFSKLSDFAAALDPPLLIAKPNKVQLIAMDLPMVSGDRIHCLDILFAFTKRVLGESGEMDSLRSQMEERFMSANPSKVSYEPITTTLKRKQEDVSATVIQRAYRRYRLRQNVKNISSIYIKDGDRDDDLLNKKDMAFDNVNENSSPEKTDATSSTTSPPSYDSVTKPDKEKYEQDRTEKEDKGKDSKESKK
Experiment: Qube automated patch-clamp assay, inhibition of sodium current
Assay type: cell-based
Details: holding potential −75 mV; max concentration tested 33750 nM; read-out: NaV1.7 (nM); −75 mV
What IC50 was measured for each of the following?
// units = nM; emit number, no label

IC50 lookup needed for C[C@@H](N)[C@H](CNc1cc(F)c(S(=O)(=O)Nc2ncns2)cc1CO)CC(N)C1CC1 (stereo partly shown) , thanks.
71

IC50 lookup needed for C[C@@H](N)[C@H](CNc1ncc(S(=O)(=O)Nc2ncns2)cc1C#N)CC(C)(C)CCN , thanks.
205

IC50 lookup needed for C[C@@H](N)[C@H](CNc1ncc(S(=O)(=O)Nc2ncns2)cc1Br)CC(C)(C)CCN , thanks.
77

IC50 lookup needed for C[C@@H](N)C(CNc1cc(F)c(S(=O)(=O)Nc2ncns2)cc1Cl)CN1CCCC1 (stereo partly shown) , thanks.
110
